# Test system: CHO
# experiment summary: Sensitization of colchicine treated parental (PAR)CHO cells, measured at concentration 0.1(mg/L)
# Format: functional, Cricetulus griseus
Would you mind telling me the reported Activity of each entry?
Numbers only.

Solved entries (count: 9):
CC[C@H](C)[C@H]1C(=O)NCC(=O)N(C)[C@@H](C(C)C)C(=O)N[C@@H](Cc2ccc(O)cc2)C(=O)O[C@H](C)C(=O)N2CCCC[C@H]2C(=O)N(C)[C@@H](C(C)C)C(=O)N[C@@H](C(C)C)C(=O)N(C)[C@@H](CC(=O)OC(C)(C)C)C(=O)N(C)[C@@H]([C@@H](C)CC)C(=O)N1C | 6.5
CC[C@H](C)[C@H]1C(=O)NCC(=O)N(C)[C@@H](C(C)C)C(=O)N[C@@H](Cc2ccc(OC)cc2)C(=O)O[C@H](C)C(=O)N2CCCC[C@H]2C(=O)N(C)[C@@H](C(C)C)C(=O)N[C@@H](C(C)C)C(=O)N(C)[C@@H](CC(=O)NC[Si](C)(C)C)C(=O)N(C)[C@@H]([C@@H](C)CC)C(=O)N1C | 6.7
C=CCNC(=O)C[C@@H]1C(=O)N(C)[C@@H]([C@@H](C)CC)C(=O)N(C)[C@@H]([C@H](C)CC)C(=O)NCC(=O)N(C)[C@@H](C(C)C)C(=O)N[C@@H](Cc2ccc(OC)cc2)C(=O)O[C@H](C)C(=O)N2CCCC[C@H]2C(=O)N(C)[C@@H](C(C)C)C(=O)N[C@@H](C(C)C)C(=O)N1C | 5
CC[C@@H](C)[C@H]1C(=O)NCC(=O)N(C)[C@@H](C(C)C)C(=O)N[C@@H](Cc2ccc(OC)cc2)C(=O)O[C@@H](C)C(=O)N2CCCC[C@H]2C(=O)N(C)[C@@H](C(C)C)C(=O)N[C@@H](C(C)C)C(=O)N(C)[C@H](CC(=O)NCCC(C)C)C(=O)N(C)[C@@H]([C@@H](C)CC)C(=O)N1C | 7.7
CC[C@@H](C)[C@H]1C(=O)NCC(=O)N(C)[C@@H](C(C)C)C(=O)N[C@@H](Cc2ccc(OC)cc2)C(=O)O[C@@H](C)C(=O)N2CCCC[C@H]2C(=O)N(C)[C@@H](C(C)C)C(=O)N[C@@H](C(C)C)C(=O)N(C)[C@H](CC(=O)N[C@H](C(=O)OC(C)(C)C)C(C)C)C(=O)N(C)[C@@H]([C@@H](C)CC)C(=O)N1C | 8.6
CC[C@@H](C)[C@H]1C(=O)NCC(=O)N(C)[C@@H](C(C)C)C(=O)N[C@@H](Cc2ccc(OC)cc2)C(=O)O[C@@H](C)C(=O)N2CCCC[C@H]2C(=O)N(C)[C@@H](C(C)C)C(=O)N[C@@H](C(C)C)C(=O)N(C)[C@H](CC(=O)NCC(C)(C)C)C(=O)N(C)[C@@H]([C@@H](C)CC)C(=O)N1C | 8
CC[C@@H](C)[C@H]1C(=O)N(C)CC(=O)N(C)[C@@H](C(C)C)C(=O)N(C)[C@@H](Cc2ccc(OC)cc2)C(=O)O[C@H](C)C(=O)N2CCCC[C@H]2C(=O)N(C)[C@@H](C(C)C)C(=O)N(C)[C@@H](C(C)C)C(=O)N(C)[C@H](CC(=O)OC)C(=O)N(C)[C@@H]([C@@H](C)CC)C(=O)N1C | 1.3
CC[C@@H](C)[C@H]1C(=O)NCC(=O)N(C)[C@@H](C(C)C)C(=O)N[C@@H](Cc2ccc(OCc3ccccc3)cc2)C(=O)O[C@H](C)C(=O)N2CCCC[C@H]2C(=O)N(C)[C@@H](C(C)C)C(=O)N[C@@H](C(C)C)C(=O)N(C)[C@H](CC(=O)O)C(=O)N(C)[C@@H]([C@@H](C)CC)C(=O)N1C | 1.1
CC[C@H](C)[C@H]1C(=O)NCC(=O)N(C)[C@@H](C(C)C)C(=O)N[C@@H](Cc2ccc(OC)cc2)C(=O)O[C@H](C)C(=O)N2CCCC[C@H]2C(=O)N(C)[C@@H](C(C)C)C(=O)N[C@@H](C(C)C)C(=O)N(C)[C@@H](CC(=O)OCCC(C)(C)C)C(=O)N(C)[C@@H]([C@@H](C)CC)C(=O)N1C | 7.5

Now for a further compound.
Query: Consider the compound CC[C@H](C)[C@H]1C(=O)NCC(=O)N(C)[C@@H](C(C)C)C(=O)N[C@@H](CC(=O)OC)C(=O)O[C@H](C)C(=O)N2CCCC[C@H]2C(=O)N(C)[C@@H](C(C)C)C(=O)N[C@@H](C(C)C)C(=O)N(C)[C@@H](CC(=O)OC)C(=O)N(C)[C@@H]([C@@H](C)CC)C(=O)N1C and give its measured Activity.
Reply: 1.9
